- assay summary: Components of the Cytosolic LPS Sensing Pathway: Gene Identification via Genome-wide siRNA Screen
- condition: RAW264.7 macrophages, IL-1a HTRF, actives lie on both sides, screened at 100 nM (by protocol), cells primed 5 h with Pam3CSK4 first
Hit rate of the full screen: of about 53,000 sequences, about 3,700 (7%) were called active. The sample as a whole holds a higher share of actives than the screen did.
quantity: z-score
The response must contain the number and no unit.

GGCAGCUUAGCUGUUCGUCTT against Socs4
-0.664
GCCUGAAUUUGUAAGCAGUTT against Fgf1
0.0666
GGUUGAAGGAGUGUUUUAUTT against Rtcb
2.09
GGCCAAAUGACUGAGAUUGTT against Rcan3
1.35
GCUACGUUUACUGACCACATT against Bcat1
1.55

Would you kindly look at the next entry?
Ask: Using the record for GCUGUGGUAAACUGAAACUTT against Glis2 , report its z-score.
Result: -1.89

---

- assay summary: Components of the Cytosolic LPS Sensing Pathway: Gene Identification via Genome-wide siRNA Screen
- condition: RAW264.7 macrophages, IL-1a HTRF, actives lie on both sides, screened at 100 nM (by protocol), cells primed 5 h with Pam3CSK4 first
The whole screen tested about 53,000 sequences, of which about 3,700 (7%) were called active.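 Rule for the calls: active = gene knockdowns whose robust z-score for IL-1 alpha signal is at least 2 or at most -2, so actives lie on both sides; inactive = the rest.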 The sample as a whole holds a higher share of actives than the screen did.
Please reply with one of these outcomes: 1 for active, 0 for inactive

GCAAGAUGGUAUCAGCAGATT against Sde2
1
CGAUUGCUCUUAACCCUUGTT against Zfp597
0
CCAGAUUAUGACAAAGCGUTT against Glyat
0
GGUCAAGAAUGUAGCUGAUTT against Atp6v0d1
0

Ask: Look up the recorded call for GCUGUUUUGGUAGAUUUUGTT against Map3k8 in this test.
Result: 0

Ask: Call for entry GCGAUCAGCAAGCUAAGCCTT against Mettl2 :
Result: 0

Ask: Would you mind telling me which call this test gave CGUGGAAAGAAAAUUAUCATT against Psmd11 ?
Result: 1

Ask: State the result this test recorded for CCAUCUAUGGUAUGGAGCGTT against Abcg4 .
Result: 0

Ask: # fetch the recorded call for CCCUAUCGUGAUUUAUUGGTT against C130073F10Rik here
Result: 0

---

- assay summary: Components of the Cytosolic LPS Sensing Pathway: Gene Identification via Genome-wide siRNA Screen;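 note: robust z of the log signal after scaling to non-targeting control siRNA wells of the plate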
- condition: RAW264.7 macrophages, IL-1a HTRF, actives lie on both sides, screened at 100 nM (by protocol), cells primed 5 h with Pam3CSK4 first
Among all 53,000 sequences or so, about 3,700 (7%) were called active. The entries come from a sample that favours actives as a whole.
Entries and their measured z-score follow.
// print number alone

GCAGCUGCACUAAAGAACGTT against Dlg1
2.9

Ask: Given the sequence GCAGUAACCUUCUAACAAATT against Foxn2 , what is its reported z-score?
Result: -0.367

Ask: Could you tell me which z-score is on file for GGGAUCCUCUUGACAUUCCTT against Epdr1 ?
Result: 3.87

Ask: Which z-score value is on record for GCCCUAGUGUCUGAAAAAATT against Sfrp5 ?
Result: 0.864

Ask: Need z-score, item GCCAGUACUUAGGUCUAAGTT against Mrps25
Result: 1.24

Ask: What value of z-score has been recorded for this entry: GCUGAGUCCAUUGAAGAAGTT against Pebp4
Result: 0.255

Ask: Recorded z-score for GGCCUUUAAGAGUUUCCAUTT against A230052G05Rik , please?
Result: 2.1

Ask: Would you kindly share the measured z-score for GCAAAGAAGCUCUUUAGAGTT against Hoxc5 ?
Result: 0.455

Ask: Requested read-out: z-score. Entry: GGAAAUGCUUCUGAGCUAGTT against Desi2
Result: 1.71

---

- assay summary: Components of the Cytosolic LPS Sensing Pathway: Gene Identification via Genome-wide siRNA Screen;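 note: robust z of the log signal after scaling to non-targeting control siRNA wells of the plate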
- condition: RAW264.7 macrophages, IL-1a HTRF, actives lie on both sides, screened at 100 nM (by protocol), cells primed 5 h with Pam3CSK4 first
Out of some 53,000 sequences screened, about 3,700 (7%) were called active. Only a selection was taken, and actives are over-represented in it overall.
This section presents sequences with their documented z-score values.
# answer = number (no unit)

Example entries begin here.
GGAAGUCCAUCAGCUUUAUTT against Wdr78
2.29
CGACUAUAGACUCUUGAAUTT against 1810037I17Rik
0.573
UCUUACAAACUAGCUCUCCTT against Crabp2
-0.777

Ask: Which z-score is listed for GGUCAAAGGGAAACAAGUUTT against Creb3l4 ?
Result: -2.02

Ask: Which z-score reading was recorded for the sequence UAGUCAUCUUCACUCUCCUTT against Olfr1249 ?
Result: -0.907

Ask: Need z-score, item GGGAAUCUUGGCAUGAUGGTT against Olfr1030
Result: -0.325

Ask: Give its z-score value. Item: GGGUUUCACAGGCAAACAGTT against Suclg1
Result: -0.904

Ask: z-score for CGAGGCUAACAAACUCAUATT against Guca2a ?
Result: 0.883

Ask: I have this sequence here, CGCCAAACAGGCUAGAUCUTT against Ephb2 , and I need its recorded z-score.
Result: -0.101

Ask: Bench note: what z-score did CCUGCCAAUCUGUCUAAGUTT against Haus1 show?
Result: -0.121

Ask: Give its z-score value. Item: GGAAAGCACAUCCUCUUUGTT against Gpx6
Result: 1.02

Ask: Report z-score for GGUCACCCUCAAGUACCCUTT against Thop1 please.
Result: -0.188

Ask: # get_value(readout='z-score', item= GGAACAGUCUGAAAUACACTT against Usp18 )
Result: -0.907

Ask: Looking for the measured z-score of GCGUACGUUCUCCUAACAUTT against Hbs1l , can you help?
Result: -1.9

Ask: Give its z-score value. Item: GGAAAUCAGAGAGAAGAUGTT against Nubp1
Result: -1.53

Ask: Quick check: z-score of CGGCUAGAUGAUCCUACCUTT against Tsga13 ?
Result: -0.542

Ask: Recorded z-score of GGAAAAGCCUACUUCAAAATT against Efcab7 , please.
Result: 0.9

Ask: Using the record for GGCCCUAGAUAUUGAUUUUTT against Rbp2 , report its z-score.
Result: -0.338

Ask: Returns the measured z-score for the input sequence. Input: CGCCAGAGUGCAUAGUCUUTT against Mindy2
Result: 1.94

Ask: What value of measured z-score is listed for GGUUCAGCCAGAAUUUUCGTT against Lefty2 ?
Result: 0.876

Ask: Data request, read-out z-score, for GGUUUUUGAGUGGGAGACCTT against Khdc3
Result: -0.578

Ask: Name the recorded z-score for CCUAUAACUCCAAGGAUACTT against Lexm .
Result: 0.628

Ask: Need z-score of GGCAAACAUGAAGAGAAGCTT against Hspb8 , thanks.
Result: 0.0665

Ask: Quick check: z-score of GGAUCAUGAGAAUAUCAUCTT against P4hb ?
Result: 0.816

Ask: # input sequence: GGCUCUGGAUGAAGAACUUTT against Gfpt2 ; wanted: its z-score
Result: 4.13

---

- assay summary: Components of the Cytosolic LPS Sensing Pathway: Gene Identification via Genome-wide siRNA Screen;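 note: robust z of the log signal after scaling to non-targeting control siRNA wells of the plate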
- condition: RAW264.7 macrophages, IL-1a HTRF, actives lie on both sides, screened at 100 nM (by protocol), cells primed 5 h with Pam3CSK4 first
Screen size: about 53,000 sequences; about 3,700 (7%) were called active. Only a selection was taken, and actives are over-represented in it overall.
Labelling: z-score reported below 0.4 becomes t; at or above becomes f.

Example results:
CGAUAAACUGGAUACCACUTT against Sntn
f
GGCUGAAAGAUUGUAUUGATT against Rwdd2b
t
GGAGAGAAAAAAGUCUCUCTT against Olfr66
f

Ask: is_below(z-score, 0.4) for GCCAACUACGUAUAUACAUTT against 4921511C20Rik ?
Result: f

---

- assay summary: Components of the Cytosolic LPS Sensing Pathway: Gene Identification via Genome-wide siRNA Screen;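 note: robust z of the log signal after scaling to non-targeting control siRNA wells of the plate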
- condition: RAW264.7 macrophages, IL-1a HTRF, actives lie on both sides, screened at 100 nM (by protocol), cells primed 5 h with Pam3CSK4 first
The whole screen tested about 53,000 sequences, of which about 3,700 (7%) were called active.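 The calls were made as follows: active = gene knockdowns whose robust z-score for IL-1 alpha signal is at least 2 or at most -2, so actives lie on both sides; inactive = the rest.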 Shown is part of a subset that was picked to be rich in actives.
Outcome field: choose from Yes = active, No = inactive

GGGAGUUCAACUUGAUGUATT against Irf6
No
GGUGUACCCUGAAUUUGAATT against Wdr62
No
CCAGACCAUUAACUUGAUUTT against Lsm8
No

Ask: Can you look up the reported call for GCGAAGACGGAAGCAUAUUTT against Emc8 for me?
Result: No

Ask: Assay outcome for GGUUGUCUGGAAUUUCCAUTT against Immp2l : what was it?
Result: Yes

Ask: Recorded test outcome, item CCAAGAUACCUUUUUUGAGTT against Paox
Result: No

Ask: Called result for CCAAGGUACUACUGGGAGATT against Sval3
Result: No

Ask: Write down the call the test reported for this sequence. Item: GGCAUUCCUCUUGAAUAUUTT against Dck
Result: No

Ask: I'd appreciate the recorded outcome for GGUUCACAGAUGAUACCUUTT against Rab18 from this test.
Result: Yes

Ask: Which outcome was entered for the sequence GGAUGUGGUGGUAUUAGACTT against Phykpl in this test?
Result: Yes

Ask: Per the assay record, what outcome was assigned to GGUCACAUUUAAUGUCACATT against Itgam ?
Result: No

Ask: Please indicate how the test categorized CCAGAAGUUAGAACAGUUCTT against Rp9 .
Result: No

Ask: // param item: GCUAUUUGACUUGUUGUAATT against Rab30 ; yields the recorded call
Result: No

Ask: Kindly provide the recorded test outcome for the following sequence: AGACCUUGAGAACAUUCUUTT against Nkx2-6
Result: No

Ask: Check the results log: what was the call for GCUCAAGAGUCUAACUCCCTT against Serinc4 ?
Result: No

Ask: Tell me the assay call for GCCAUGUCAAUCAAUCACUTT against Nucks1 please.
Result: Yes

Ask: Outcome? CCUCUUAUUCAGAAUGUCCTT against Bnc2
Result: No

Ask: What call does the record list for GCACAACGGUUCGUUGUUATT against 4933427E11Rik ?
Result: No
